Just for reference, patent US20150056222A1 is where these values come from.

- STUDY_SYSTEM: T1, mouse PRLR on HEK293 cells (mouse, UniProt Q08501 20-608)
- T1 construct: whole, on cells; also called mPRLR; HEK293/mPRLR
- T1 sequence (looked up): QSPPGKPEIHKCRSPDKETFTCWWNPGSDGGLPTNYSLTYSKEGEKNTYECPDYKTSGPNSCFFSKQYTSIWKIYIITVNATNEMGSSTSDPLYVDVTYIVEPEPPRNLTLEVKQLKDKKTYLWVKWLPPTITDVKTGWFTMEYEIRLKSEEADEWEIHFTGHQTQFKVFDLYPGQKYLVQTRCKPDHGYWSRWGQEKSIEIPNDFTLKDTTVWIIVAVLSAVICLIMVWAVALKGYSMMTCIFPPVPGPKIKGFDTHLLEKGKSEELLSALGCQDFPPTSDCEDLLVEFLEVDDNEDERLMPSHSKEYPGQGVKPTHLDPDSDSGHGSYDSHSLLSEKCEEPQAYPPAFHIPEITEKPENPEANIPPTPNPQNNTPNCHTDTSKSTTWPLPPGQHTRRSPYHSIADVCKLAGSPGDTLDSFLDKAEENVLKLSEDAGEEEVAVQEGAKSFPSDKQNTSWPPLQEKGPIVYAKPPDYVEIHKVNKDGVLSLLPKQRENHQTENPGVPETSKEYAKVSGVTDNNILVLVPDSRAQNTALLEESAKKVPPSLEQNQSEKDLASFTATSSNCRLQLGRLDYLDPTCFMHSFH
- EXPERIMENTAL_PROTOCOL: FACS, HEK293/mPRLR cells; further: test concentration or dose not given here
MEASURE_NAME: FACS Cell Binding (Fold Above Background) (fold above background)
Give bare numbers, in fold above background.

H1H6800P (antibody, human IgG1, V domains shown, human IgG1 Fc (H1H)) VH: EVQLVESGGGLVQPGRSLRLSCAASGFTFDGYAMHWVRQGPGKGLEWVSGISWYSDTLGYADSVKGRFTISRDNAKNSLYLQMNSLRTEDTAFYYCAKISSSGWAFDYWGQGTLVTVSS VL: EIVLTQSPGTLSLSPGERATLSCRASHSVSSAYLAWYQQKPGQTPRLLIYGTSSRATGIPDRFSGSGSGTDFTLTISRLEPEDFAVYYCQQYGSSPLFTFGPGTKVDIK    1
H1H6792P (antibody, human IgG1, V domains shown, human IgG1 Fc (H1H)) VH: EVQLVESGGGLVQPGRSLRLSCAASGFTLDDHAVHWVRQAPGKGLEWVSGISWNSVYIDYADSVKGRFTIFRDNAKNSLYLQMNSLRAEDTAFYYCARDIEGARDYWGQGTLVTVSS VL: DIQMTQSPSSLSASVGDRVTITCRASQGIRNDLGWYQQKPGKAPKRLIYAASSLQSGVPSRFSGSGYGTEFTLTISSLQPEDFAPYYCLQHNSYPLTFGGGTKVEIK    3
H1H6781P (antibody, human IgG1, V domains shown, human IgG1 Fc (H1H)) VH: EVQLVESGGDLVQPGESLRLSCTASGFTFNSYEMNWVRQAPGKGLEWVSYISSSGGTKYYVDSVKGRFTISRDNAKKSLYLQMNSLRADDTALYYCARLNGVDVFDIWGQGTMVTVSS VL: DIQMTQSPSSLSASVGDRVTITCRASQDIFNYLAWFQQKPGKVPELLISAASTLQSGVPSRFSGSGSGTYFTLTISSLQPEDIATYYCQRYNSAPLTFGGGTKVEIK    1

Record FACS Cell Binding (Fold Above Background) per entry; entries follow.
1. H1H6967N (antibody, human IgG1, V domains shown, also called H2M6967N) VH: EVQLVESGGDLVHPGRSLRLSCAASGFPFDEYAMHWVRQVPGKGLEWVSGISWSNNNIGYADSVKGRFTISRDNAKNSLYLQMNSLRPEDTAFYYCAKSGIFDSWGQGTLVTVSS VL: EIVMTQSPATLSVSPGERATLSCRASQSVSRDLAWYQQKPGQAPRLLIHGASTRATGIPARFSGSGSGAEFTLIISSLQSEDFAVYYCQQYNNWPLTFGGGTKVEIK
2. H1H6958N2 (antibody, human IgG1, V domains shown, also called H2M6958N2) VH: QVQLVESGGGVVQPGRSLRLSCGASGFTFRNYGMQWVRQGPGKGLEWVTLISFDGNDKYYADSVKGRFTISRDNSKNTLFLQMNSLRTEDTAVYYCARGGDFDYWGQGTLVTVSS VL: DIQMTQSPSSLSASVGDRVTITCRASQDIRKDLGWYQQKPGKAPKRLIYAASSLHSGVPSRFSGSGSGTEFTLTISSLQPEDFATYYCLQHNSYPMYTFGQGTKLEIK

1: 2; 2: 1
